Each record here notes measured pKd.
Target: T1, EsCas13d, nuclease-dead (Eubacterium siraeum, UniProt B0MS50, R295A;H300A;R849A;H854A)
T1 sequence: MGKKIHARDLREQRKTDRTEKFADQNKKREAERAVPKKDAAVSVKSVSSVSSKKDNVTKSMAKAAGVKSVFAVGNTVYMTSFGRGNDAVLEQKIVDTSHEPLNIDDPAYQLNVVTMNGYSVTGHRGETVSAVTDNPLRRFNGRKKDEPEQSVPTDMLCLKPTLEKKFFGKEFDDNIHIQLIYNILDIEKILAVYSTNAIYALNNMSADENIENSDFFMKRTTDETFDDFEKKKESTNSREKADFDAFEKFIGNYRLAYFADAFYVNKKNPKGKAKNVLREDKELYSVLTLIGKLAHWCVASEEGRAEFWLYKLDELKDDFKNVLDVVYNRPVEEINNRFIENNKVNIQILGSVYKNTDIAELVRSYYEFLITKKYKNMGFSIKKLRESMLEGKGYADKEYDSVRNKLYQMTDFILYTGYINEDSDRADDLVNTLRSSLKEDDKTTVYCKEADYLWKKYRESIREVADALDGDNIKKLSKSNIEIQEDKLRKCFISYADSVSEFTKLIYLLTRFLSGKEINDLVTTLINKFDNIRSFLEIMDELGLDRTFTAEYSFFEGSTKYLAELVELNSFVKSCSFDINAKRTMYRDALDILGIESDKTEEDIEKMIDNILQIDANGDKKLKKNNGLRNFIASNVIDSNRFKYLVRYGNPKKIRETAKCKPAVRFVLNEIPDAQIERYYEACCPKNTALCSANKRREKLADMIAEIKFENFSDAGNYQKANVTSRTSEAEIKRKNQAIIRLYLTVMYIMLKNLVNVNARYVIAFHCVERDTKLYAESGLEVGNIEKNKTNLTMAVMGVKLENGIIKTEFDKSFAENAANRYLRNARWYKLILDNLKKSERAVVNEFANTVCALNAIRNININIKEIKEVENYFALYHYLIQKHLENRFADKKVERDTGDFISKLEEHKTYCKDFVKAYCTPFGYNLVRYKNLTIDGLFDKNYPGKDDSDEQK
Experiment: crRNA (strand 1, pre-loaded); Mg2+; 40 mM Tris-HCl pH 7.5, 150 mM NaCl, 6 mM MgCl2, 1 mM DTT, 0.1% Tween-20, 0.2 mg/ml BSA; 25 C; 10 min per concentration, then washed
Conditions: tags: His6-TwinStrep-SUMO cleaved; N-terminal SNAP kept (SNAP-Surface 488); label: 3' end held by stalled T7 RNA polymerase
Scale explanation: pKd corresponds to minus log10 of a concentration expressed in moles per litre.

// fetch pKd given entry target 1 MT 5'PFS UAG 3'PFS CAA (mixed) RNA 1: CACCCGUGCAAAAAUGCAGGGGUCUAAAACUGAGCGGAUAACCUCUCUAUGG RNA 2: GGGAAUGGAUCCACAUCUACGAAUUCUAGCCAUAGAGAGGUUAUCCGCUCACAAAGAUCGGAAGAGCACACGU
7.29

// fetch pKd given entry target 1 insA 3' of 7,insC 3' of 3 (mixed) RNA 1: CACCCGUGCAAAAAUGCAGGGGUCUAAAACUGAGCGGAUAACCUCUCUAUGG RNA 2: GGGAAUGGAUCCACAUCUACGAAUUCGUACCAUAGAGAGGUUAUCACGCUCCACCGAGAUCGGAAGAGCACACGU
8.20

// fetch pKd given entry target 1 A20C,C21A (mixed) RNA 1: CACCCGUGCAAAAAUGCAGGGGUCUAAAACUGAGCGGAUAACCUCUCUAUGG RNA 2: GGGAAUGGAUCCACAUCUACGAAUUCGUACACUAGAGAGGUUAUCCGCUCACCGAGAUCGGAAGAGCACACGU
8.25

// fetch pKd given entry target 2 MT 5'PFS UGG 3'PFS UAC (mixed) RNA 1: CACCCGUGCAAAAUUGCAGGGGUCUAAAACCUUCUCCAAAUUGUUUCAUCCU RNA 2: GGGAAUGGAUCCACAUCUACGAAUUCUGGAGGAUGAAACAAUUUGGAGAAGUACAGAUCGGAAGAGCACACGU
8.07
